# assayed_system: Neutrophil collagenase (Homo sapiens)
# Sequence (P22894 whole entry): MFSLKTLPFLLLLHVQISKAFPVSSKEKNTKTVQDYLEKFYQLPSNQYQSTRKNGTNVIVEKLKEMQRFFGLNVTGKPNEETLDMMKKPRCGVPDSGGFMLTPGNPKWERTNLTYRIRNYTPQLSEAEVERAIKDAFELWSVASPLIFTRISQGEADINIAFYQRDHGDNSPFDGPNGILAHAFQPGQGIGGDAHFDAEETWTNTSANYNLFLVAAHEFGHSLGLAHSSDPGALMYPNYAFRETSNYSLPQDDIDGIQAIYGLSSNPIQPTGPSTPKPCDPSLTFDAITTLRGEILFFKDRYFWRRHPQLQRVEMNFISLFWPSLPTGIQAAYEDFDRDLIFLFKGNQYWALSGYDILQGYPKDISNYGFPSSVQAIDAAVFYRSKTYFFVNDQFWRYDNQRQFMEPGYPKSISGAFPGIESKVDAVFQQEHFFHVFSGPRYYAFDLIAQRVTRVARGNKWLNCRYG
# method_notes: Inhibition of human MMP8 using (7-methoxycoumarin-4-yl)acetyl-Pro-Leu-Gly-Leu-(3-(2,4-dinitrophenyl)-L-2,3-diamino-propionyl)Ala-Arg-NH2 as substrate preincubated for 30 mins followed by substrate addition and measured by fluorescence assay
reported_property: pIC50
Schema: pIC50 number; meaning minus log10 of the concentration expressed in molar units.

Use these answered entries as a reference point.
item_smiles | assayed_system | reported_property | recorded_number
O=C(NO)[C@@H]1CCCN1C(=O)c1ccc(C#Cc2ccc(CN3CCOCC3)cc2)cc1 | Neutrophil collagenase (Homo sapiens) | pIC50 | 5.70
O=C(NO)[C@@H]1CCCN1Cc1ccc(C#Cc2ccc(CN3CCOCC3)cc2)cc1 | Neutrophil collagenase (Homo sapiens) | pIC50 | 5.30

Lab note: next compound to report on.
Param item = CCCCCc1ccc(C#Cc2ccc(C(=O)N3C[C@@H](O)C[C@H]3C(=O)NO)cc2)cc1 ; retrieve measured pIC50.
7.82

---

# maps each entry to its diameter of the inhibition zone (DIZ)
# System: Klebsiella oxytoca
# method_notes: Antibacterial activity against Klebsiella oxytoca assessed as diameter of inhibition zone measured after 24 hrs by agar disc diffusion method
# Assay type: functional
Number in mm, nothing else.

Example results:
item_smiles | uom | diameter of the inhibition zone (DIZ)
N[C@H]1C[C@@H](C(=O)NO)N(C(=O)c2ccc(C#Cc3ccccc3)cc2)C1 | mm | 7
COc1ccc(C#Cc2ccc(C(=O)N3C[C@@H](O)C[C@H]3C(=O)NO)cc2)cc1 | mm | 7

We now examine a further compound.
Which diameter of the inhibition zone (DIZ) reading was recorded for the compound O=C(NO)[C@@H]1C[C@H](O)CN1C(=O)c1ccc(C#Cc2ccccc2)cc1 ?
7

---

Dear all, this message contains IC50 results, target or system 72 kDa type IV collagenase (Homo sapiens, UniProt P08253).
Give the value, in units of µM, as a plain number.

Consider the worked cases shown below.
item_smiles | uom | IC50
CCCCCc1ccc(C#Cc2ccc(C(=O)N3C[C@@H](O)C[C@H]3C(=O)NO)cc2)cc1 | µM | 0.003
O=C(NO)[C@@H]1C[C@@H](O)CN1C(=O)c1ccc(C#Cc2ccc(CN3CCOCC3)cc2)cc1 | µM | 1
O=C(NO)[C@H]1CCCN1C(=O)c1ccc(C#Cc2ccc(CN3CCOCC3)cc2)cc1 | µM | 0.503
CC1(C)O[C@@H]2[C@@H](CN(C(=O)c3ccc(C#Cc4ccc(CN5CCOCC5)cc4)cc3)[C@H]2C(=O)NO)O1 | µM | 3

Shifting focus to the molecule that follows.
Requested read-out: IC50. Entry: O=C(NO)[C@@H]1C[C@H](O)CN1C(=O)c1ccc(C#Cc2ccc(OCCCCCF)cc2)cc1
0.005

---

# method_notes: Inhibition of Escherichia coli LpxC C63A mutant using UDP-3-O-[(R)-3-hydroxymyristoyl]-N-acetylglucosamine as substrate measured after 30 mins by fluorescence based microplate assay
reported_property: Ki

item_smiles | result
CC1(C)O[C@@H]2[C@H](O1)[C@H](c1ccc(C#Cc3ccc(CN4CCOCC4)cc3)cc1)O[C@@H]2C(=O)NO | > 27.6 µM
O=C(NO)[C@@H]1C[C@H](O)CN1C(=O)c1ccc(C#Cc2ccc(CN3CCCC3)cc2)cc1 | > 27.6 µM
O=C(NO)[C@@H]1C[C@H](O)CN1C(=O)c1ccc(C#Cc2ccccc2)cc1 | > 27.6 µM

Name the reported Ki value associated with the molecule O=C(NO)[C@@H]1CCCN1C(=O)c1ccc(C#Cc2ccc(CN3CCS(=O)(=O)CC3)cc2)cc1
2.4 µM

Consider next the molecule O=C(NO)[C@@H]1CCCN1Cc1ccc(C#Cc2ccc(CN3CCOCC3)cc2)cc1 in the same way.
1.4 µM

Continue with O=C(NO)[C@H]1[C@H](O)[C@H](O)CN1C(=O)c1ccc(C#Cc2ccc(CN3CCOCC3)cc2)cc1
> 27.6 µM

And the next one, O=C(NO)[C@@H]1C[C@H](O)CN1C(=O)c1ccc(C#Cc2ccc(CN3CCCCC3)cc2)cc1 ?
7.5 µM

Moving on to the next molecule: O=C(NO)[C@@H]1C[C@@H](O)CN1C(=O)c1ccc(C#Cc2ccc(F)cc2)cc1
> 27.6 µM

---

# method_notes: Inhibition of Escherichia coli LpxC C63A mutant using UDP-3-O-[(R)-3-hydroxymyristoyl]-N-acetylglucosamine as substrate measured after 30 mins by fluorescence based microplate assay
# note: exactly 50 µM is not below, so it is F; use T for IC50 strictly under it

Consider the following illustrative entries.
item_smiles | class
O=C(NO)[C@@H]1C[C@@H](O)CN1Cc1ccc(C#Cc2ccc(CN3CCOCC3)cc2)cc1 | F
O=C(NO)[C@@H]1C[C@H](O)CN1C(=O)c1ccc(C#Cc2ccccc2)cc1 | F
O=C(NO)[C@@H]1C[C@H](O)CN1C(=O)c1ccc(C#Cc2ccc(CN3CCCCC3)cc2)cc1 | F
O=C(NO)[C@@H]1CCCN1Cc1ccc(C#Cc2ccc(CN3CCOCC3)cc2)cc1 | T
O=C(NO)[C@@H]1C[C@H](O)CN1C(=O)c1ccc(C#Cc2ccc(CN3CCC(O)CC3)cc2)cc1 | T

Say whether its IC50 is strictly beneath 50 µM. Entry: CN(C)c1ccc(C#Cc2ccc(C(=O)N3C[C@@H](O)C[C@H]3C(=O)NO)cc2)cc1
T

Likewise for O=C(NO)[C@@H]1CCCN1C(=O)c1ccc(C#Cc2ccc(CN3CCOCC3)cc2)cc1 ?
T

Another compound to check: O=C(NO)[C@@H]1C[C@H](F)CN1Cc1ccc(C#Cc2ccccc2)cc1
F

Also O=C(NO)[C@H]1CCCN1C(=O)c1ccc(C#Cc2ccc(CN3CCOCC3)cc2)cc1 ?
F

---

# System: Escherichia coli
# method_notes: Antibacterial activity against Escherichia coli D22 measured after 20 hrs by microdilution method
# Assay type: functional
# condition_context: D22, 20 h
reported_property: MIC

item_smiles | result
N[C@H]1C[C@@H](C(=O)NO)N(C(=O)c2ccc(C#Cc3ccccc3)cc2)C1 | 128 µM

Quick one: MIC of O=C(NO)[C@@H]1CCCN1Cc1ccc(C#Cc2ccc(CN3CCSCC3)cc2)cc1 ?
1 µM

And what about the compound CC1(C)O[C@@H]2[C@@H](CN(C(=O)c3ccc(C#Cc4ccc(CN5CCOCC5)cc4)cc3)[C@H]2C(=O)NO)O1 ?
256 µM

Also, O=C(NO)[C@H]1O[C@@H](c2ccc(C#Cc3ccc(CN4CCOCC4)cc3)cc2)[C@@H](O)[C@H]1O please.
16 µM

Could you do the same for O=C(NO)[C@@H]1O[C@@H](c2ccc(C#Cc3ccc(CN4CCOCC4)cc3)cc2)[C@@H](O)[C@H]1O , please?
8 µM

Now consider O=C(NO)[C@@H]1C[C@H](F)CN1C(=O)c1ccc(C#Cc2ccccc2)cc1 .
128 µM

---

# method_notes: Inhibition of Escherichia coli LpxC C63A mutant using UDP-3-O-[(R)-3-hydroxymyristoyl]-N-acetylglucosamine as substrate measured after 30 mins by fluorescence based microplate assay
reported_property: pKi
Recall that pKi is obtained by taking minus log10 of the concentration measured in molar.

Look over these answered cases.
item_smiles | pKi
O=C(NO)[C@@H]1[C@H](O)[C@H](O)CN1C(=O)c1ccc(C#Cc2ccc(CN3CCOCC3)cc2)cc1 | 6.47
O=C(NO)[C@@H]1C[C@@H](O)CN1C(=O)c1ccc(C#Cc2ccccc2)cc1 | 4.85

What does the record list as pKi for O=C(NO)[C@@H]1C[C@H](O)CN1C(=O)c1ccc(C#Cc2ccc(CN3CCSCC3)cc2)cc1 ?
5.35

// query: CCCCCc1ccc(C#Cc2ccc(C(=O)N3C[C@H](O)C[C@H]3C(=O)NO)cc2)cc1
6.09

---

Listed below: MIC values for each entry.
# Tested on: Escherichia coli
# method_notes: Antibacterial activity against Escherichia coli D22 measured after 20 hrs by microdilution method
# Assay type: functional
# condition_context: D22, 20 h
Write down the numeric answer in µM and omit the unit.

Examples with their reported MIC follow.
item_smiles | assayed_system | MIC, µM
N[C@H]1C[C@@H](C(=O)NO)N(C(=O)c2ccc(C#Cc3ccc(CN4CCOCC4)cc3)cc2)C1 | Escherichia coli | 64
O=C(NO)[C@@H]1C[C@H](O)CN1C(=O)c1ccc(C#Cc2ccc(CN3CCOCC3)cc2)cc1 | Escherichia coli | 16
O=C(NO)[C@@H]1CCCN1Cc1ccc(C#Cc2ccc(CN3CCOCC3)cc2)cc1 | Escherichia coli | 4
O=C(NO)[C@@H]1CCCN1C(=O)c1ccc(C#Cc2ccc(CN3CCS(=O)(=O)CC3)cc2)cc1 | Escherichia coli | 64
O=C(NO)[C@H]1CCCN1C(=O)c1ccc(C#Cc2ccc(CN3CCOCC3)cc2)cc1 | Escherichia coli | 8

I am curious: what MIC value has been reported for CN(C)c1ccc(C#Cc2ccc(C(=O)N3C[C@@H](O)C[C@H]3C(=O)NO)cc2)cc1 ?
32

Another compound to check: CCCCCc1ccc(C#Cc2ccc(C(=O)N3C[C@H](O)C[C@H]3C(=O)NO)cc2)cc1
16

Now try O=C(NO)[C@@H]1C[C@H](O)[C@H](c2ccc(C#Cc3ccc(CN4CCOCC4)cc3)cc2)O1 .
16
